Target: sPHGDH (1-307) (Homo sapiens, UniProt O43175)
Construct: the truncated version of PHGDH (sPHGDH, 1-307); made in house
Sequence (O43175 1-307): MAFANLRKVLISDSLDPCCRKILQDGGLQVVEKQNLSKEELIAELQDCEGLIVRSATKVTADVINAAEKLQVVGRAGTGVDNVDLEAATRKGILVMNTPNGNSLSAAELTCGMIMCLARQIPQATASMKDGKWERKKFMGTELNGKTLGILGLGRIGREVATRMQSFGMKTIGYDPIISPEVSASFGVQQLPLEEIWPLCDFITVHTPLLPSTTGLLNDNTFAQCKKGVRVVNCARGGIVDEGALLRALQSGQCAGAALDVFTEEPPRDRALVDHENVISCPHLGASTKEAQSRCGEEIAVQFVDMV
Assay: sPHGDH enzyme activity assay (NADH fluorescence)
Format: biochemical
Conditions: peptide concentration of 50 µM; sPHGDH
Bridge positions count the residues as written; N and C are the ends. Ends that are not written are not given here.

SUBSTANCE | Inhibition Rate (%)
C1TPQA TAC8MW DGKWC15 RKKC19 (CTPQATACMWDGKWCRKKC; disulfide 1-19, 8-15; not fully specified (N-terminus); printed as C_1_TPQA TAC_8_MW DGKWC_15_ RKKC_19_) [Cyc2-4, cyc2-1 with K10W] | 44%
C1TPQA TLSMK NGSWQ EKKC19 (CTPQATLSMKNGSWQEKKC; disulfide 1-19; not fully specified (N-terminus); printed as C_1_TPQA TLSMK NGSWQ EKKC_19_) [Cyc1-10, cyc1-9 with added A7L] | None
C1TPQA TAC8MK DGKWC15 WKKC19 (CTPQATACMKDGKWCWKKC; disulfide 1-19, 8-15; not fully specified (N-terminus); printed as C_1_TPQA TAC_8_MK DGKWC_15_ WKKC_19_) [Cyc2-5, cyc2-1 with R16W] | 27%
C1TPQA TASMK DGKWE RKKC19 (CTPQATASMKDGKWERKKC; disulfide 1-19; not fully specified (N-terminus); printed as C_1_TPQATASMKDGKWERKKC_19_) [Cyc1-1, head-to-tail disulfide-cyclized peptide (C1-C19) from the PHGDH dimerization loop] | 40%
C1TPQA TLLMK DGKWE EKKC19 (CTPQATLLMKDGKWEEKKC; disulfide 1-19; not fully specified (N-terminus); printed as C_1_TPQA TLLMK DGKWE EKKC_19_) [Cyc1-8, cyc1-2 with substitution S8L] | None
